# Tested on: 3T3-L1
# assay remarks: In vitro glucose transport activity in 3T3-LI adipocytes at 3 uM concentration.
# Assay type: functional, Mus musculus
Reported Glucose transport values for the following compounds.
Answers without a unit are incomplete; give the number and then its unit.

Study these solved cases before continuing.
C[n+]1c2ccccc2c(Sc2ccc(Cl)cc2)c2oc3ccccc3c21.O=S(=O)([O-])C(F)(F)F = 118%
C[n+]1c2ccccc2c(Cl)c2[nH]c3ccccc3c21.[Cl-] = 107%
C[n+]1c2ccccc2c(Cl)c2oc3ccccc3c21.O=S(=O)([O-])C(F)(F)F = 119%
C[n+]1c2ccc(F)cc2c(-c2ccccc2)c2[nH]c3ccccc3c21.[Cl-] = 281%
C[n+]1c2ccccc2c(I)c2[nH]c3ccc(F)cc3c21.[Cl-] = 115%

Input line: Name the reported Glucose transport value associated with the compound `C[n+]1c2cccc(Cl)c2c(Cl)c2[nH]c3ccccc3c21.[Cl-]`
Output line: 120%

Input line: Same again, this time with C[n+]1c2ccccc2cc2[n-]c3ccccc3c21.Cl [CRYPTOLEPINE HYDROCHLORIDE]
Output line: 148%

Input line: Same again, this time with `C[n+]1c2ccccc2c(Cl)c2[nH]c3ccc(-c4ccccc4)cc3c21.[Cl-]`
Output line: 122%

====

# System: 3T3-L1
# assay remarks: In vitro glucose transport activity in 3T3-LI adipocytes at 10 uM concentration.
# Format: functional, Mus musculus
measurement kind: Glucose transport (%)
Response body: numeric value in %, unit text excluded.

C[n+]1c2c(c(Sc3ccc(Cl)cc3)c3ccccc31)Cc1ccccc1-2.O=S(=O)([O-])C(F)(F)F = 110

Input line: Name the reported Glucose transport value associated with the compound `COc1cccc2cc3[nH]c4ccccc4c3[n+](C)c12.[Cl-]`
Output line: 486

Input line: Same again, this time with `COC(=O)c1c2ccccc2[n+](C)c2c1[nH]c1ccccc12.[I-]`
Output line: 159

Input line: Same again, this time with `CCCC[n+]1c2ccccc2cc2[nH]c3ccccc3c21.[Cl-]`
Output line: 868

Input line: Same again, this time with `C[n+]1c2ccccc2c(Cl)c2sc3ccccc3c21.O=S(=O)([O-])C(F)(F)F`
Output line: 100

====

# Tested on: Mus musculus
# assay remarks: Change in plasma glucose levels measured in genetically altered obese diabetic mice(db/db) at 100 mg/kg at 3 hr postdose
# Format: functional
# thresholds on Change define classes: lower bin (below -30%), middle bin (-30% to below -10%), upper bin (-10% or more)

C[n+]1c2ccccc2c(I)c2[nH]c3c(F)cccc3c21.[Cl-] = upper bin
C[n+]1c2ccc(F)cc2c(Nc2ccccc2)c2[nH]c3ccccc3c21.[Cl-] = middle bin
CCCC[n+]1c2ccccc2cc2[nH]c3ccccc3c21.[Cl-] = lower bin
COc1cccc2cc3[nH]c4ccccc4c3[n+](C)c12.[Cl-] = upper bin
C[n+]1c2ccc(F)cc2c(-c2ccccc2)c2[nH]c3ccccc3c21.[Cl-] = middle bin
Fc1ccc(C[n+]2c3ccccc3cc3[nH]c4ccccc4c32)cc1.[Cl-] = lower bin

Input line: GET /class?item= `C[n+]1c2ccccc2c(I)c2[nH]c3ccc(F)cc3c21.[Cl-]`
Output line: lower bin

Input line: Same again, this time with `[Cl-].c1ccc(C[n+]2c3ccccc3cc3[nH]c4ccccc4c32)cc1`
Output line: middle bin

Input line: Same again, this time with `C[n+]1c2ccc(F)cc2cc2[nH]c3ccccc3c21.[Cl-]`
Output line: lower bin

Input line: Same again, this time with `C[n+]1c2ccccc2cc2[nH]c3cc(Cl)c(Br)cc3c21.[Cl-]`
Output line: lower bin
